B1: TFE3 (parent)
chain: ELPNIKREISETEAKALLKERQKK

Variants of: B1
Test: protein stability index of a GFP-peptide fusion (GPS, HEK-293T) (PSI 1-6); higher = more stable;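 further: lentivirally expressed fusions sorted by FACS into six bins by GFP to DsRed ratio, PSI derived from sequencing read proportions per bin multiplied by bin number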
Details: c terminus: a fixed tail appended
protein stability index values for the variants below.

Answered cases to consult:
# sequence text, protein stability index
records = [
    ("ELPNIKREYSETEAKALLKERQKK", 4.34),
    ("ELPNIKREISETEYKALLKERQKK", 2.49),
    ("ELPCIKREISETEAKALLKERQKK", 2.32),
    ("ELPNIKREISETEAKALLKELQKK", 2.97),
    ("ELPNIKREISETEAPALLKERQKK", 4.59),
    ("ELPNIKREISETEAKALTKERQKK", 2.65),
    ("ELPNIKREISETEAKALLRERQKK", 2.32),
    ("ELPNIKREISETEAKQLLKERQKK", 4.6),
]

Can you share its protein stability index? I mean this variant: ELPNIKREISETEAKALLKEIQKK 2.66

Can you share its protein stability index? I mean this variant: ELPNIKREISETEAKCLLKERQKK 2.2

Can you share its protein stability index? I mean this variant: ELPNIKGEISETEAKALLKERQKK 2.2

Can you share its protein stability index? I mean this variant: ELPNIKREILETEAKALLKERQKK 2.57

Can you share its protein stability index? I mean this variant: ELPNIKREISETEAKAGLKERQKK 2.76

Can you share its protein stability index? I mean this variant: ELPNIKRMISETEAKALLKERQKK 3.32

Can you share its protein stability index? I mean this variant: ELPNIKREISEVEAKALLKERQKK 4.04

Can you share its protein stability index? I mean this variant: EFPNIKREISETEAKALLKERQKK 4.29

Can you share its protein stability index? I mean this variant: ELPNIKREISETEAKAKLKERQKK 3.17

Can you share its protein stability index? I mean this variant: ELPNIKREIQETEAKALLKERQKK 2.68

Can you share its protein stability index? I mean this variant: ELPNIKREIFETEAKALLKERQKK 2.65
